Reported log10 of IC50 is given for each of the following molecules.
- study target: human tissue nonspecific alkaline phosphatase (h-TNAP) (Homo sapiens, UniProt P05186)
- Sequence (P05186 18-524): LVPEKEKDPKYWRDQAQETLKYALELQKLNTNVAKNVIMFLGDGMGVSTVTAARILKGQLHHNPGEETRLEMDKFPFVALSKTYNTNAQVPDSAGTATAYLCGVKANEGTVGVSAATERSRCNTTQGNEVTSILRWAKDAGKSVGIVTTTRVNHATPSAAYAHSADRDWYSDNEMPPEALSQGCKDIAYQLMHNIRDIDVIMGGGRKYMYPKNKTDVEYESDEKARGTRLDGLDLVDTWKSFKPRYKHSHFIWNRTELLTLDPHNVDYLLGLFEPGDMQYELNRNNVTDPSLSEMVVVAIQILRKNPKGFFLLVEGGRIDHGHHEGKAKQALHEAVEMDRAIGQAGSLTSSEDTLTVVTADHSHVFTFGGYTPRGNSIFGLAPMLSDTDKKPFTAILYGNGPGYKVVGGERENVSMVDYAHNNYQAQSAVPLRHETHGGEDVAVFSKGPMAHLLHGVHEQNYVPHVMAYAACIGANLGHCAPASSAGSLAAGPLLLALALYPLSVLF
- assay method text: Alkaline phosphatase inhibition assay (p-NPP substrate)
- Type: biochemical
- study conditions: Table 2; unit given in Table 1; read-out: Alkaline Phosphatase (h-TNAP) IC50
- Experimental: The newly synthesized compounds were tested against human tissue nonspecific alkaline phosphatase (h-TNAP). The compounds were initially tested against the h-TNAP enzymes at 1 mM concentration. The assay buffer (pH 9.5) constituted of 50% glycerol, followed by tris-hydrochloride (50.0 mM), MgCl2 (5.0 mM), and ZnCl2 (0.1 mM) in the solution. […] Percent inhibition was calculated by the formula:% Inhibition = [100 − (abs of test comp/abs of control) × 100]
Transform log10 | Measure IC50 | Unit nM

Known results for molecules:
{"structure smiles string": "CCOc1ccc(-c2c(C#N)c(N)nc(NCCc3ccc(S(N)(=O)=O)cc3)c2C#N)cc1", "log10 of IC50": 2.69}
{"structure smiles string": "CCOc1ccc(-c2c(C#N)c(N)nc(NCCCn3ccnc3)c2C#N)cc1", "log10 of IC50": 3.09}
{"structure smiles string": "N#CC1=C(N)N(Cc2ccccc2)C(N)=C(C#N)C1c1ccc2ccccc2c1", "log10 of IC50": 3.12}
{"structure smiles string": "COc1c(O)cccc1C1C(C#N)=C(N)N(Cc2ccccc2)C(N)=C1C#N", "log10 of IC50": 3.35}

Please look at the following molecule next.
Please give the measured log10 of IC50 for this molecule: COc1ccc(C2C(C#N)=C(N)N(Cc3ccccc3)C(N)=C2C#N)c(OC)c1OC
3.94

* * *

- study target: human tissue nonspecific alkaline phosphatase (h-TNAP) (Homo sapiens, UniProt P05186)
- assay method text: Alkaline phosphatase inhibition assay (p-NPP substrate)
- Format: biochemical
- study conditions: Table 2; compounds tested at 1 mM; read-out: Alkaline Phosphatase (h-TNAP) percent inhibition
measure: inhibition at 1000 µM
Answer shape: numeric part, then the unit.

Known results for molecules:
{"structure smiles string": "CC(C)c1ccc(-c2c(C#N)c(N)nc(NCCc3ccc(S(N)(=O)=O)cc3)c2C#N)cc1", "inhibition at 1000 µM": "31.7%"}
{"structure smiles string": "CSc1ccc(C2C(C#N)=C(N)N(Cc3ccccc3)C(N)=C2C#N)cc1", "inhibition at 1000 µM": "21.1%"}

Please give the measured inhibition at 1000 µM for this molecule: CC(C)c1ccc(-c2c(C#N)c(N)nc(NCCCn3ccnc3)c2C#N)cc1
36.5%

Please give the measured inhibition at 1000 µM for this molecule: N#CC1=C(N)N(Cc2ccccc2)C(N)=C(C#N)C1c1cccc2ccccc12
26.2%

Please give the measured inhibition at 1000 µM for this molecule: CC(C)c1ccc(C2C(C#N)=C(N)N(Cc3ccccc3)C(N)=C2C#N)cc1
28.3%

Please give the measured inhibition at 1000 µM for this molecule: CSc1ccc(-c2c(C#N)c(N)nc(NCCc3ccc(S(N)(=O)=O)cc3)c2C#N)cc1
37.6%

* * *

- study target: UniProt P05186
- assay method text: Alkaline phosphatase inhibition assay (p-NPP substrate)
- Format: biochemical

{"compound": "CSc1ccc(C2C(C#N)=C(N)N(Cc3ccccc3)C(N)=C2C#N)cc1 [Compound 4a]", "study target": "UniProt P05186", "activity against h-TNAP in words": "least activity"}
{"compound": "CC(C)c1ccc(C2C(C#N)=C(N)N(Cc3ccccc3)C(N)=C2C#N)cc1 [Compound 4b]", "study target": "UniProt P05186", "activity against h-TNAP in words": "least activity"}

Measured values drawn from paper PMC9570995 for this set.
